Where do these numbers come from? They come from patent US12459921B2.

- System: MM.1S cells
- MEASUREMENT_NOTES: Inhibitory effect on the proliferation of MM.1S, MTS cell viability test
- Assay type: cell-based
- ASSAY_CONTEXT: Homo sapiens, MM1.S, 168 h, multiple myeloma MM.1S cells, 7 days incubation, read-out: Tumor cell inhibitory activity
pIC50: −log10 of the molar value.
pIC50 overview

C[C@]1(N2C(=O)c3cccc(OCCCN4CCC(C#N)(c5ccccc5Cl)CC4)c3C2=O)CCC(=O)NC1=O    4.70 to 6.00
N#CC1(c2cccc(Cl)c2)CCN(CCCCCOc2cccc3c2CN(C2CCC(=O)NC2=O)C3=O)CC1 (stereo not shown)    > 7.00
O=C1CCC(N2Cc3c(CCCCCN4CCC5(CC4)OCc4cc(F)ccc45)cccc3C2=O)C(=O)N1 (stereo not shown)    6.00 to 7.00
O=C1CCC(N2Cc3c(CCCCCN4CCC(c5ccccc5)CC4)cccc3C2=O)C(=O)N1 (stereo not shown)    < 4.70
CC(=O)N[C@@H](CCCc1cccc2c1CN(C1CCC(=O)NC1=O)C2=O)C(=O)N1CCC2(CC1)OCc1ccccc12 (stereo partly shown)    6.00 to 7.00
CC(=O)N[C@@H](CCCc1cccc2c1CN(C1CCC(=O)NC1=O)C2=O)C(=O)NC(C)(C)c1ccccc1 (stereo partly shown)    6.00 to 7.00
CC(=O)N[C@@H](CCCc1cccc2c1CN(C1CCC(=O)NC1=O)C2=O)C(=O)NC(C)(C)C (stereo partly shown)    4.70 to 6.00
Cc1ccc(NC(=O)[C@H](CCCc2cccc3c2CN(C2CCC(=O)NC2=O)C3=O)NC(=O)CCCCCN)cc1Cl (stereo partly shown)    6.00 to 7.00
N#CC1(c2ccc(OC(F)(F)F)cc2Cl)CCN(CCCCCc2cccc3c2CN(C2CCC(=O)NC2=O)C3=O)CC1 (stereo not shown)    6.00 to 7.00
C[C@]1(N2Cc3c(OCCCN4CCC(C#N)(c5cccc(Cl)c5)CC4)cccc3C2=O)CCC(=O)NC1=O    4.70 to 6.00

# get_value(readout= pIC50, system= MM.1S cells) for O=C1CCC(N2Cc3c(CCCCCOc4ccnc5ccccc45)cccc3C2=O)C(=O)N1 (stereo not shown) > 7.00

Form field: pIC50 recorded for N#CC1(c2c(Cl)cccc2Cl)CCN(CCCCCc2cccc3c2CN(C2CCC(=O)NC2=O)C3=O)CC1 (stereo not shown) with MM.1S cells (enter value) 6.00 to 7.00

Lookup: pIC50 / MM.1S cells / O=C1CCC(N2Cc3c(CCCCCN4CCCc5ccccc54)cccc3C2=O)C(=O)N1 (stereo not shown) 6.00 to 7.00

Lookup: pIC50 / MM.1S cells / O=C1CCC(N2Cc3c(OCCCCC(=O)N4CCC5(CC4)OCc4ccc(Cl)cc45)cccc3C2=O)C(=O)N1 (stereo not shown) > 7.00

Which pIC50 is reported with MM.1S cells for this entry: O=C1CCC(N2Cc3c(OCCCCNC(=O)N4CCN(c5cccc(Cl)c5Cl)CC4)cccc3C2=O)C(=O)N1 (stereo not shown) ? > 7.00

Form field - read-out: pIC50; system: MM.1S cells; submitted item: O=C1CCC(N2Cc3c(CCCCN4CCN(c5nsc6ccccc56)CC4)cccc3C2=O)C(=O)N1 (stereo not shown) 4.70 to 6.00

Item O=C1CCC(N2Cc3c(CCCCCN4CCOc5ccccc54)cccc3C2=O)C(=O)N1 (stereo not shown) with MM.1S cells - pIC50? 6.00 to 7.00

Request: pIC50, test system MM.1S cells, entry O=C1CCC(N2Cc3c(CCCCCOc4cccc5cnccc45)cccc3C2=O)C(=O)N1 (stereo not shown) 6.00 to 7.00

Record `C[C@]1(N2C(=O)c3cccc(OCCCN4CCC(C#N)(c5cccc(OC(F)(F)F)c5)CC4)c3C2=O)CCC(=O)NC1=O` : what is its pIC50 with MM.1S cells? 4.70 to 6.00
